Origin of the recorded values: ChEMBL document CHEMBL3045843

biological target: Nicotinic acetylcholine receptor alpha 5 subunit (Musca domestica, UniProt A9XFY4); test: Displacement of [3H]alpha-bungarotoxin from nAChR in Musca domestica (house fly) head membrane after 60 min by scintillation counting
Sequence (A9XFY4 whole entry): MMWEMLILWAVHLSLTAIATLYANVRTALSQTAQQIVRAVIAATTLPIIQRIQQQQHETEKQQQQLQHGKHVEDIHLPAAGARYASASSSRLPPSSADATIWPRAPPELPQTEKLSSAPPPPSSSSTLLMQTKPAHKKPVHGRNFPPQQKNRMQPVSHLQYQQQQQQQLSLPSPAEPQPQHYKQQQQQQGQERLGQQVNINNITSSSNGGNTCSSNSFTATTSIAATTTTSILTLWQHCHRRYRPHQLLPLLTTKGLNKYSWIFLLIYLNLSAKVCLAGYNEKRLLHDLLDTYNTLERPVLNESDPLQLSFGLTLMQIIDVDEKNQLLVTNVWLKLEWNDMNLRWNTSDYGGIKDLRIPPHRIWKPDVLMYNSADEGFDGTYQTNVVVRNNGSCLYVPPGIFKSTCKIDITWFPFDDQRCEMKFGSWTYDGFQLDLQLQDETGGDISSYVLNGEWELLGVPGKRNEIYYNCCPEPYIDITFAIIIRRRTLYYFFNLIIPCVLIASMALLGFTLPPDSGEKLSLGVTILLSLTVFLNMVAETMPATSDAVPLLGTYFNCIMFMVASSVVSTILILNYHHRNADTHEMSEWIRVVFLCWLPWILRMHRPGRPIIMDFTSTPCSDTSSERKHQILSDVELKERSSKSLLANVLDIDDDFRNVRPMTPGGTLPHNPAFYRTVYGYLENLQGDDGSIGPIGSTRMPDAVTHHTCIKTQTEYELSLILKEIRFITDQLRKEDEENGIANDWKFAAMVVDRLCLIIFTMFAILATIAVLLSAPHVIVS
parameter: Ki

Request: Request - read-out Ki | tested on Nicotinic acetylcholine receptor alpha 5 subunit (Musca domestica, UniProt A9XFY4) | compound Cn1cccc1-c1cccnc1 [NICOTYRINE]
Result: > 1000 µM

Request: Which measured Ki belongs to `O=[N+]([O-])C(/C=N/c1ccccc1)=C1NCCN1` , tested on Nicotinic acetylcholine receptor alpha 5 subunit (Musca domestica, UniProt A9XFY4)?
Result: > 500 µM

Request: Value wanted: Ki (Nicotinic acetylcholine receptor alpha 5 subunit (Musca domestica, UniProt A9XFY4)) of entry CNC1(C)C2CCC(C2)C1(C)C (stereo not drawn) [MECAMYLAMINE]
Result: > 1000 µM

Request: Recall the recorded Ki for `CCOc1ccccc1Cn1nc(OC)oc1=O` with Nicotinic acetylcholine receptor alpha 5 subunit (Musca domestica, UniProt A9XFY4) and state it.
Result: > 100 µM

Request: Field: Ki (Nicotinic acetylcholine receptor alpha 5 subunit (Musca domestica, UniProt A9XFY4)). Entry: `CCCNCc1cccnc1`
Result: > 1000 µM

Request: Item `CN(C)Cc1ccncc1` with Nicotinic acetylcholine receptor alpha 5 subunit (Musca domestica, UniProt A9XFY4) - Ki?
Result: > 1000 µM

Request: Return Ki measured with Nicotinic acetylcholine receptor alpha 5 subunit (Musca domestica, UniProt A9XFY4) given this compound: `N#C/N=C1/NCCN1/C=N/c1ccccc1`
Result: > 500 µM

Request: Value wanted: Ki (Nicotinic acetylcholine receptor alpha 5 subunit (Musca domestica, UniProt A9XFY4)) of entry `c1cncc(CN2CCOCC2)c1`
Result: > 1000 µM

Request: Report Ki for c1cncc(C2CCCCN2)c1 (stereo not drawn) [DL-ANABASINE] tested on Nicotinic acetylcholine receptor alpha 5 subunit (Musca domestica, UniProt A9XFY4).
Result: 3.71 µM

Request: Give recorded Ki with Nicotinic acetylcholine receptor alpha 5 subunit (Musca domestica, UniProt A9XFY4) for the following compound: COc1cc2c3cc1Oc1cc(ccc1O)C[C@@H]1c4c(cc(OC)c(O)c4Oc4ccc(cc4)C[C@@H]3N(C)CC2)CC[N+]1(C)C [TUBOCURARINE]
Result: 1.88 µM

Request: Value wanted: Ki (Nicotinic acetylcholine receptor alpha 5 subunit (Musca domestica, UniProt A9XFY4)) of entry `CCCN(CCC)Cc1cccnc1`
Result: 220 µM

Request: Ki, test system Nicotinic acetylcholine receptor alpha 5 subunit (Musca domestica, UniProt A9XFY4), entry `CCCCNCc1cccnc1`
Result: > 1000 µM

Request: // lookup Ki | system=Nicotinic acetylcholine receptor alpha 5 subunit (Musca domestica, UniProt A9XFY4) | key= CN1[C@@H](CC(=O)c2ccccc2)CCC[C@H]1C[C@H](O)c1ccccc1 [LOBELINE]
Result: 12.8 µM

Request: Look up Ki with Nicotinic acetylcholine receptor alpha 5 subunit (Musca domestica, UniProt A9XFY4) for this compound: CN1CCC[C@H]1c1cccnc1 [NICOTINE]
Result: 2.48 µM

Request: Return Ki measured with Nicotinic acetylcholine receptor alpha 5 subunit (Musca domestica, UniProt A9XFY4) given this compound: `CN(C)Cc1ccccn1`
Result: > 1000 µM

Request: Checklist item: Ki tested on Nicotinic acetylcholine receptor alpha 5 subunit (Musca domestica, UniProt A9XFY4), entry C[N+]1(CCCCC[N+]2(C)CCCC2)CCCC1 [PENTOLINIUM] , value?
Result: 108 µM

Request: // lookup Ki | system=Nicotinic acetylcholine receptor alpha 5 subunit (Musca domestica, UniProt A9XFY4) | key= c1cncc(CN2CCCC2)c1 [N-(3-PYRIDYLMETHYL)PYRROLIDINE]
Result: 16.4 µM

Request: Kindly state the measured Ki obtained for CCC[C@H]1CCCCN1 [CONIINE] with Nicotinic acetylcholine receptor alpha 5 subunit (Musca domestica, UniProt A9XFY4).
Result: > 1000 µM

---

test: Disocciation constant, pKa of the compound at 37 degC; assay type: physicochemical
parameter: pKa
Give a plain numeric answer without units written out.

Request: Quick one: pKa of `c1cncc(CN2CCCCC2)c1` ?
Result: 8.16

Request: Using the record for `CCCCNCc1cccnc1` , report its pKa.
Result: 8.66

Request: Requested field: pKa. Item: `CCN(CC)Cc1ccccn1`
Result: 8.42

Request: Which pKa reading was recorded for the compound `CN(C)Cc1cccnc1` ?
Result: 7.76

Request: # pKa lookup, item `CCNCc1cccnc1`
Result: 8.96

Request: Would you mind telling me what pKa value was observed for `Cn1cccc1-c1cccnc1` ?
Result: 4.5

Request: So what does the record say about pKa for `CNCc1cccnc1` ?
Result: 8.3

---

Field: pKi. Provide a value for each of the molecules that follow.
assay: Displacement of [3H]alpha-bungarotoxin from nAChR in honeybee head membrane after 60 min by scintillation counting; assay type: cell membranes, Apis mellifera
pKi: −log10 of the molar value.

Request: So what does the record say about pKi for `Cn1cccc1-c1cccnc1` ?
Result: < 3.00

Request: // lookup pKi for `CCOc1ccccc1Cn1nc(OC)oc1=O`
Result: < 4.00

Request: Would you kindly share the measured pKi for `CN(C)Cc1ccccn1` ?
Result: < 3.00

Request: Give its pKi value. Item: `c1cncc(CN2CCOCC2)c1`
Result: < 3.00

Request: For the molecule `CCCNCc1cccnc1` , what pKi is on record?
Result: < 3.00

Request: Give its pKi value. Item: `CN1C(=O)CC[C@H]1c1cccnc1`
Result: < 3.00

Request: Need pKi, item `COc1nn(-c2ccc(C)cc2OC)c(=O)o1`
Result: < 3.00

Request: I would be grateful if you could share the reported pKi for `c1cncc(C2=NCCC2)c1` .
Result: < 3.00

Request: Need pKi, item `O=[N+]([O-])C(/C=N/c1ccccc1)=C1NCCN1`
Result: < 3.30

Request: Give its pKi value. Item: `O=[N+]([O-])C=C1NCCN1`
Result: < 3.00

Request: So what's the measured pKi for this one? `N#C/N=C1/NCCN1/C=N/c1ccccc1`
Result: < 3.30

Request: Find the recorded pKi belonging to `CN1[C@@H](CC(=O)c2ccccc2)CCC[C@H]1C[C@H](O)c1ccccc1` and report it.
Result: 5.04

Request: For `CN(C)Cc1cccnc1` , what is its reported pKi?
Result: 3.68

Request: Which measured pKi value corresponds to `COC(=O)C1=CCCN(C)C1` ?
Result: 3.62

Request: Which pKi value belongs to `CCNCc1cccnc1` ?
Result: 3.54

Request: Item under review: `CN(C)Cc1ccncc1` . Reported pKi?
Result: < 3.00

Request: Please report the recorded pKi for `CN(C)C1CSSC1` .
Result: 3.60

---

Quick record of IC50 values for Acetylcholinesterase (Musca domestica, UniProt Q7YWJ9).
Value expressed in mM; do not type the unit.

Request: IC50 for c1cncc([C@@H]2CCCN2)c1 [NORNICOTINE] ?
Result: 4.2

Request: Requested read-out: IC50. Entry: `c1cncc(CN2CCCCC2)c1`
Result: 1.5

Request: Endpoint output: IC50 of CN1CCC[C@H]1c1cccnc1 [NICOTINE] . Value?
Result: 2.6

Request: Look at this molecule and give its reported IC50. c1cncc(C2CCCCN2)c1 (stereo not drawn) [DL-ANABASINE]
Result: 3.9

Request: IC50 for Cn1cccc1-c1cccnc1 [NICOTYRINE] ?
Result: 2.3

Request: Suppose we examine the molecule `CCCCN(CCCC)Cc1cccnc1` ; what IC50 value has been reported?
Result: 2.8

Request: Report IC50 for c1cncc([C@@H]2CCCN2)c1 (racemic) [NORNICOTINE] please.
Result: 9.7

Request: // lookup IC50 for `CCCNCc1cccnc1`
Result: 17

Request: Look up IC50 for this molecule: `CC(C)NCc1cccnc1`
Result: 3.9
